All values here come from patent US20200087400A1.

target: T1, control peptide A2E-10/HLA-A*02:01 complex on T2 cells (member of the P19 mixture) (human); assay: flow cytometry, phage on T2 cells
T1 construct: Loaded on T2 cells as part of the mixture of 19 control peptides

{"columns": ["binder", "binding result"],
 "data": [
  ["PSA146/HLA-A*02:01-specific scFv phage clone #6 (scFv, V domains shown) VH: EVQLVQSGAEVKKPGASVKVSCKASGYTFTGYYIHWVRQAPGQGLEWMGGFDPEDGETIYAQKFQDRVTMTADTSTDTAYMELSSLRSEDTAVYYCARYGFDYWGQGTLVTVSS VL: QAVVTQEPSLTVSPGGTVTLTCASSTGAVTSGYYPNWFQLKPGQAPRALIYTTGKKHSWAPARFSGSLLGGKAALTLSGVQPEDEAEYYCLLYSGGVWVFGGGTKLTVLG", "no binding"],
  ["PSA146/HLA-A*02:01-specific scFv phage clone #9 (scFv, V domains shown) VH: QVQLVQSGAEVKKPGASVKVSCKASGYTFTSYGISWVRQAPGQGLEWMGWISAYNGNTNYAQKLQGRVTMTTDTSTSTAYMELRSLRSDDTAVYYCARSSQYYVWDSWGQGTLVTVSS VL: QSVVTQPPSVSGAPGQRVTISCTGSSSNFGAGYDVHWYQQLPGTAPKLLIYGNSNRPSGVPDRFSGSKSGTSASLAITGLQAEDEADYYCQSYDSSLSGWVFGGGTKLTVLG", "no binding"],
  ["PSA146/HLA-A*02:01-specific scFv phage clone #15 (scFv, V domains shown) VH: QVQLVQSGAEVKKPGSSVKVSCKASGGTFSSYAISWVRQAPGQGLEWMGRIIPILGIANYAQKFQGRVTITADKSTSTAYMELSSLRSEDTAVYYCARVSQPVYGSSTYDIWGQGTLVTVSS VL: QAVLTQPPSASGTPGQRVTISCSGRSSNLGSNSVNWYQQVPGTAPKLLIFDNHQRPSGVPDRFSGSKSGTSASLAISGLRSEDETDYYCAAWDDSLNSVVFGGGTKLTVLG", "no binding"],
  ["PSA146/HLA-A*02:01-specific scFv phage clone #13 (scFv, V domains shown) VH: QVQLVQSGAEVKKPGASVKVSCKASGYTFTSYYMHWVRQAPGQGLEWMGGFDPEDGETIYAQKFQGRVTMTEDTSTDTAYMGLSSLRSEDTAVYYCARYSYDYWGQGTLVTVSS VL: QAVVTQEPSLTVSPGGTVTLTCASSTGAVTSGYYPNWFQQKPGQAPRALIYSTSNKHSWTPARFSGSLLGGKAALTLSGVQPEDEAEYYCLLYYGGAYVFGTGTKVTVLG", "no binding"],
  ["PSA146/HLA-A*02:01-specific scFv phage clone #18 (scFv, V domains shown) VH: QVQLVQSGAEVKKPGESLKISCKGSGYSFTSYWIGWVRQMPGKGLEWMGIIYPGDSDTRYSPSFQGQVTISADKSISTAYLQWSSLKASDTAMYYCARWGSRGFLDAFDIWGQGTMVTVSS VL: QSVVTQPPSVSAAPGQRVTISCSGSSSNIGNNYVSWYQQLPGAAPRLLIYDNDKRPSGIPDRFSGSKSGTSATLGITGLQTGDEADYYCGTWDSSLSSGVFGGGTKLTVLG", "no binding"],
  ["PSA146/HLA-A*02:01-specific scFv phage clone #12 (scFv, V domains shown) VH: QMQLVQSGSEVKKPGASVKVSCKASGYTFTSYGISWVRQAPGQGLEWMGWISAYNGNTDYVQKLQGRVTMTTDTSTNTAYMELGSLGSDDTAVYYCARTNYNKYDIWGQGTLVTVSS VL: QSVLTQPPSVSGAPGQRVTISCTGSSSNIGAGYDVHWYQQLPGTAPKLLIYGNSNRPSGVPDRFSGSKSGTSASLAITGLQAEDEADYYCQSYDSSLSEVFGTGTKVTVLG", "no binding"],
  ["PSA146/HLA-A*02:01-specific scFv phage clone #5 (scFv, V domains shown) VH: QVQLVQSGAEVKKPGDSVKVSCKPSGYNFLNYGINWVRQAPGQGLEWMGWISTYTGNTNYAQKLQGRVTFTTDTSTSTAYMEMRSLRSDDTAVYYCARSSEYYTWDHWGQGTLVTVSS VL: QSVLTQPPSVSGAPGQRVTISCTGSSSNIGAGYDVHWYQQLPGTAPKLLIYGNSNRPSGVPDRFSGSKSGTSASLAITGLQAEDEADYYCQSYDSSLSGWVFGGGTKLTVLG", "no binding"]
]}
